Target: PTGS2 (Homo sapiens, UniProt P35354)
Construct: purchased Cayman Chemical
Sequence (P35354 18-604): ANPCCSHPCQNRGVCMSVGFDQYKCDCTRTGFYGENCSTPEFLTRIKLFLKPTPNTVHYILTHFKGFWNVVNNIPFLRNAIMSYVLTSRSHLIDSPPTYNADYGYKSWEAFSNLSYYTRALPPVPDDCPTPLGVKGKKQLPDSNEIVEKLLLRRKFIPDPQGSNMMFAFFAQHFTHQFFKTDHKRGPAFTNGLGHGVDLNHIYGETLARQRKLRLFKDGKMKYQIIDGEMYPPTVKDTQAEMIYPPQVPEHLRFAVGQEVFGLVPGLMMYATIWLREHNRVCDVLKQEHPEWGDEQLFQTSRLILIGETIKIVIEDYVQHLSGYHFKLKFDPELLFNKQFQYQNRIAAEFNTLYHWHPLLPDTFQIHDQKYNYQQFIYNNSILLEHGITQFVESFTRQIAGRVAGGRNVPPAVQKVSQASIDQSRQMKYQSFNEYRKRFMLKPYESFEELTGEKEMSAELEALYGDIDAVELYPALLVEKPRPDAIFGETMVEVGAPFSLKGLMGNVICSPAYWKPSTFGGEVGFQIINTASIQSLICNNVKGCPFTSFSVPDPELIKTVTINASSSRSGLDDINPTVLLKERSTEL
Test: COX Inhibitor Screening Assay Kit (PTGS2)
Assay type: biochemical
Conditions: target PTGS2; mean ± SD of three independent repeats, Bliss method, eight data points
Quick reference for IC50 among some compounds
assay-readout: IC50 (µM)

Cc1c(C(=O)NN2CCCCC2)nn(-c2ccc(Cl)cc2Cl)c1-c1ccc(Cl)cc1 [Rimonabant] | 138
C/C(=C\C(=O)OCCCCCCCCC(=O)O)C[C@@H]1OC[C@H](C[C@@H]2O[C@H]2[C@@H](C)[C@H](C)O)[C@@H](O)[C@H]1O [Mupirocin] | 123
CC[C@H](C)C(=O)O[C@H]1C[C@H](O)C=C2C=C[C@H](C)[C@H](CC[C@@H](O)C[C@@H](O)CC(=O)O)[C@H]21 [Pravastatin] | 199

###

Biological target: Enpp2 (Homo sapiens)
Construct: purchased Cayman Chemical
Assay: Autotaxin Inhibitor Screening Assay Kit (Enpp2)
Assay type: biochemical
Settings: target Enpp2; mean ± SD of three independent repeats, Bliss method, eight data points; read-out: IC50 (μM):mean ± SD
Description: To validate the practicability of WES model, we randomly selected Enpp2, Faah, PTGS2, PPARG, and REN, the five inflammation-related targets, and predicted their direct ligand-target interactions. The 24 top-scoring (hybrid-WES) and commercially available drug-target interactions (Table 3) were tested by the ligand-binding assays. […]
assay-readout: IC50

CCN(CC)CC(=O)OCC(=O)[C@@]1(O)CC[C@H]2[C@@H]3CCC4=CC(=O)CC[C@]4(C)[C@H]3[C@@H](O)C[C@@]21C [Hydrocortamate] | 218 µM
CCCCCCCCc1ccc(CCC(N)(CO)CO)cc1 | 115 µM

###

Target: Faah (Homo sapiens, UniProt O00519)
Construct: purchased Cayman Chemical
Sequence (O00519 whole entry): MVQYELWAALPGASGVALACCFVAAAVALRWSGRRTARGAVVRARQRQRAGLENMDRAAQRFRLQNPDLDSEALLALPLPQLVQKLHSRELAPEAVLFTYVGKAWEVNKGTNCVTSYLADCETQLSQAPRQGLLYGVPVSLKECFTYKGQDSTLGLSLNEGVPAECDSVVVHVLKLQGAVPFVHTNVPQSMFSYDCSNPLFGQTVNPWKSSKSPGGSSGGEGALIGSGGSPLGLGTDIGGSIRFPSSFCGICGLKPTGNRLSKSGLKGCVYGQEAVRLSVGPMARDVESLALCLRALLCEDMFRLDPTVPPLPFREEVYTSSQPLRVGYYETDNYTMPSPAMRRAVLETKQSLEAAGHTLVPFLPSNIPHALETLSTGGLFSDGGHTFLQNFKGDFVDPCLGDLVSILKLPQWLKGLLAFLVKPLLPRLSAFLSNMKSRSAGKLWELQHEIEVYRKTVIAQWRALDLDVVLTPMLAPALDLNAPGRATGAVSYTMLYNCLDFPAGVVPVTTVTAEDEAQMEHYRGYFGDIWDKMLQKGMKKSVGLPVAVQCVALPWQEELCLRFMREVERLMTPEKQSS
Test: FAAH Inhibitor Screening Assay Kit (Faah)
Assay type: biochemical
Conditions: target Faah; mean ± SD of three independent repeats, Bliss method, eight data points
assay-readout: IC50 (µM)

CC(=O)OCC(=O)NCCCOc1cccc(CN2CCCCC2)c1 [Roxatidine acetate] | 34.5

###

Target: PPARG (Homo sapiens, UniProt P37231)
Sequence (P37231 1-505): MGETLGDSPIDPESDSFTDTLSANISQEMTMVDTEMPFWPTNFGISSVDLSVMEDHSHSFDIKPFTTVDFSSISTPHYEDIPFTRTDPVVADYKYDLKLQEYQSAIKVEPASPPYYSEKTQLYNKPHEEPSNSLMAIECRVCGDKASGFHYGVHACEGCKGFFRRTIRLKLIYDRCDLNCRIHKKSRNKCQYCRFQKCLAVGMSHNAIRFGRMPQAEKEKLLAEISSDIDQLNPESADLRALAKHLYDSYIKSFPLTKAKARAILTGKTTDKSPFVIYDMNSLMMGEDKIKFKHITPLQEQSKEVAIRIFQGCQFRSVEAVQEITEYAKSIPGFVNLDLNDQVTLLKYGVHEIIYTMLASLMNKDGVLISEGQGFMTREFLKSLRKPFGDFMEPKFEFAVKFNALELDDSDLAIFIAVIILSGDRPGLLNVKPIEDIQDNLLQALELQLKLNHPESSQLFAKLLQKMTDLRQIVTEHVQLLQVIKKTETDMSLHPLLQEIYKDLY
Assay: PPARγ Ligand Screening Assay Kit (PPARG)
Assay type: binding
Conditions: target PPARG; mean ± SD of three independent repeats, Bliss method, eight data points
Quick reference for IC50 among some compounds
assay-readout: IC50 (µM)

COC(=O)CCc1ccc(OCC(O)CNC(C)C)cc1 (centres unmarked) | 40.8
CCCCC[C@H](O)CC[C@@H]1[C@H]2Cc3cccc(OCC(=O)O)c3C[C@H]2C[C@H]1O | 69

These entries and their values trace back to paper PMC4496667.
